Entry source: PubChem BioAssay (NCI)

- Test system: HS 578T breast
- testMethodNotes: NCI-60 one-dose screen, 48 h
- assayConditions: 10 µM unless noted
Compounds without any hit were thinned out: in the full panel of roughly 83,000, 20% have a hit. Calls of active or inactive are those of the source. The calls were made as follows: active = growth percent below 10; inactive = the rest.
One label from this list, please: TRUE (active), FALSE (inactive)

Consider the worked cases shown below.
molecule	assignedCategory
O=C(CCC(=O)N1CCOCC1)OCCCCCCSc1ccc([N+](=O)[O-])c2nonc12	TRUE
CCN(CC)CCn1c2ccc(O)cc2c2sc3cc(OC)ccc3c(=O)c21	FALSE
Nc1ncc(-c2ccc3ncnc(N4CCc5cc(F)c(Cl)cc54)c3c2)cn1	TRUE
Nn1c(N/N=C/c2nc3ccccc3s2)n[nH]c1=S	FALSE
C[C@@H](Nc1c(C#N)cnc2ccc(-c3cnc(Cl)c(NS(C)(=O)=O)c3)cc12)c1ccccc1	TRUE
C[C@@H]1C[C@H]2C(=O)O[C@@H](C)C(NC(=O)[C@H](Cc3cc(F)cc(F)c3)NC(=O)Nc3ccc(C4CC4)cc3F)C(=O)N3CCC[C@H]3C(=O)N3CCCC[C@H]3C(=O)N[C@@H](CO)C(=O)N2C1 (some centres undefined)	FALSE
Cc1occc1-c1nc2s/c(=C/c3ccc(-c4cc(C(F)(F)F)ccc4Cl)o3)c(=O)n2n1	FALSE
NC/C(=C/F)COc1ccc2nc(NCc3cccnc3)oc2c1	FALSE
O=S(=O)(Nc1ccc(I)cc1Cl)c1ccc(-c2cnc(C3CC3)o2)cc1	FALSE
COc1ccc(N2C(=O)c3cc(Cl)ccc3NC2SCc2ccccc2)cc1 (centres undefined)	FALSE

Q: I would be grateful if you could indicate the recorded call for "C#C[C@]1(O)CC[C@H]2[C@@H]3CC=C4c5sc(-c6ccc(C)cc6)nc5CC[C@]4(C)[C@H]3CC[C@@]21C" .
Ans: TRUE

Q: I would be grateful if you could indicate the recorded call for "N/C(=N\C(N)=N\c1nc2ccccc2s1)c1cccc(F)c1" .
Ans: FALSE

Q: I would be grateful if you could indicate the recorded call for "CC(C)(O)c1cncc(-c2ccc3ncnc(NCc4ccccc4)c3c2)c1" .
Ans: FALSE

Q: I would be grateful if you could indicate the recorded call for "COc1ccccc1NC1=C(Cl)C(=O)c2nc(C)ccc2C1=O" .
Ans: FALSE

Q: I would be grateful if you could indicate the recorded call for "Nc1cc(-c2c[nH]c3ccc(Br)cc23)nc2cc(-c3c[nH]c4ccc(Br)cc34)nn12" .
Ans: FALSE

Q: I would be grateful if you could indicate the recorded call for "CC(=O)c1nnn(-c2c(C(=O)n3nc(C)cc3C)sc(=S)n2-c2ccccc2)c1C" .
Ans: FALSE

Q: I would be grateful if you could indicate the recorded call for "CC(C)C[C@@H]1N[C@@]2(C(=O)Nc3ccccc32)[C@@H](c2ccc(F)cc2)[C@@H]1C(=O)c1ccc(O)cc1" .
Ans: FALSE

Q: I would be grateful if you could indicate the recorded call for "COc1ccc(/C=C(/C)c2ccc3ccc(OC)cc3[o+]2)c(O)c1" .
Ans: FALSE

Q: I would be grateful if you could indicate the recorded call for COc1ccc2c(c1)Oc1nc(N)c(C#N)c(N)c1C2Sc1ccc(C)cc1 (centres undefined) .
Ans: FALSE

----------
- Test system: A549/ATCC NSCLC
- testMethodNotes: NCI-60 one-dose screen, 48 h
- assayConditions: 10 µM unless noted
The panel holds about 83,000 compounds, 20% with a hit somewhere; the sample as a whole holds those more often. Calls of active or inactive are those of the source. Rule for the calls: active = growth percent below 10; inactive = the rest.
One label from this list, please: 1 (yes) = active, 0 (no) = inactive

> print(dat)
                                   compound  assignedcategory
1   COc1ccccc1C(=O)Nc1cccc2c1C(=O)C(=O)C=C2            0 (no)
2  O=C(CN1CCN(c2cc(=O)n(-c3ccccc3)c3ccccc23)CC1)Nc1ccc(F)cc1            0 (no)
3  N#Cc1ccccc1Cn1c2nc(=N)c3ccccc3c-2nc2ccccc21            0 (no)

Q: I would be grateful if you could indicate the recorded call for CC(=O)C1=C(C)NC(NNC(N)=S)=NC1c1ccccc1 (stereo not given) .
Ans: 0 (no)

Q: I would be grateful if you could indicate the recorded call for "O=C(Nc1ccc2c(ccn2Cc2ccccn2)c1)c1ccnnc1" .
Ans: 0 (no)

Q: I would be grateful if you could indicate the recorded call for "C=CC(=O)N1CCC=C(c2cc3c(N[C@H](C)c4ccccc4)ncnc3[nH]2)C1" .
Ans: 0 (no)

Q: I would be grateful if you could indicate the recorded call for CC(Nc1c(C#N)cnc2ccc(-c3cnc(N)nc3)cc12)c1ccccc1 (stereo not given) .
Ans: 0 (no)

Q: I would be grateful if you could indicate the recorded call for Cc1c(Cl)cccc1S(=O)(=O)Nc1ccc2c(c1)C(=O)N(C1CCC(=O)NC1=O)C2=O (stereo not given) .
Ans: 0 (no)

Q: I would be grateful if you could indicate the recorded call for "CN(C)CCN(C)c1ccc2ncc(C#Cc3cncc(C(=O)Nc4ccc(CN5CCN(C)CC5)c(C(F)(F)F)c4)c3)n2n1" .
Ans: 1 (yes)

Q: I would be grateful if you could indicate the recorded call for Cc1ccc2sc3c(c2c1)OC(N)=C(C#N)C3c1cccc(F)c1 (stereo not given) .
Ans: 0 (no)

----------
- System: ACHN renal
- testMethodNotes: NCI-60 one-dose screen, 48 h (100 = growth as untreated, 0 = no growth, -100 = all killed)
- assayConditions: 10 µM unless noted
Compounds without any hit were thinned out: in the full panel of roughly 83,000, 20% have a hit.
readout: growth (%)
State just the number; it will be interpreted in %.

Consider the following illustrative entries.
compound	readoutNumber
Nc1nc(-c2cccc([N+](=O)[O-])c2)c(N=Nc2ccccc2)s1	63.2
COc1cccc(C(=O)Nc2cccc(C#Cc3cccc4[nH]nc(N)c34)c2)c1	51
Cn1cc(-c2cc(N)n3nc(-c4cn(C)c5ccccc45)cc3n2)c2ccccc21	94.8
O=C(CSc1nnc(-c2ccc3nc(-c4ccccc4)[nH]c3c2)o1)Nc1ccc(C(=O)/C=C/c2ccccc2)cc1	102

Q: Data request, read-out growth, for "C=C(C)[C@@H]1CC[C@]2(C(=O)NCCCCCN(CCC#N)CCC#N)CC[C@]3(C)[C@H](CC[C@@H]4[C@@]5(C)CCC(=O)C(C)(C)[C@@H]5CC[C@]43C)[C@@H]12"
Ans: 98.7

Q: Data request, read-out growth, for "Oc1ccc(CSc2nnc(-c3ccc(Cl)cc3)n2-c2ccccc2)c2cccnc12"
Ans: 30.5

----------
- Tested on: NCI/ADR-RES ovarian
- testMethodNotes: NCI-60 one-dose screen, 48 h
- assayConditions: 10 µM unless noted
Compounds without any hit were thinned out: in the full panel of roughly 83,000, 20% have a hit. Calls of active or inactive are those of the source. How the source made its calls: active means growth percent below 10; inactive means the rest.
One label from this list, please: active, inactive

Consider the worked cases shown below.
> print(dat)
                                   compound  assignedcategory
1  CCNC(=O)Oc1ccc(/C(=C(/C)c2ccccc2)c2ccc(OCCN3CCCCCC3)cc2)cc1          inactive
2  C=C(C=O)[C@@H]1CC[C@]2(C)[C@H](C(=O)C=C3[C@H]4C[C@](C)(C(=O)OC)CC[C@]4(C)CC[C@]32C)[C@@]1(C)CCC#N            active

Q: I would be grateful if you could indicate the recorded call for "ClC(Cl)c1nc(-c2ccco2)n2nc(-c3ccccc3)cc2n1" .
Ans: active

Q: I would be grateful if you could indicate the recorded call for "C#C[C@]1(O)CC[C@H]2[C@@H]3CC=C4c5sc(-c6cccc(O)c6)nc5CC[C@]4(C)[C@H]3CC[C@@]21C" .
Ans: active

Q: I would be grateful if you could indicate the recorded call for CCCn1cnc2c(c1=N)C(c1ccc(Cl)cc1)c1sc3c(C)cccc3c1O2 (centres undefined) .
Ans: active

Q: I would be grateful if you could indicate the recorded call for "O=C(CN1CCN(c2cc(=O)n(-c3ccccc3)c3ccccc23)CC1)Nc1nc(-c2ccccc2)cs1" .
Ans: inactive

----------
growth for assorted molecules
- Tested on: MALME-3M melanoma
- testMethodNotes: NCI-60 one-dose screen, 48 h (100 = growth as untreated, 0 = no growth, -100 = all killed)
- assayConditions: 10 µM unless noted
This is part of a sample that, as a whole, favours compounds with a hit. Of some 83,000 tested, about 20% had one in any assay.
State just the number; it will be interpreted in %.

Q: Data request, read-out growth, for "CCn1c2ccccc2c2cc(-n3nncc3-c3ccccc3)ccc21"
Ans: 56.3

Q: Data request, read-out growth, for "COc1ccccc1NC1=C(Cl)C(=O)c2nc(C)ccc2C1=O"
Ans: -55.9

Q: Data request, read-out growth, for "CN1CCN(c2ccc(/C=N/n3cnc4oc(-c5ccccc5)cc4c3=N)cc2)CC1"
Ans: 113
